# study_system: HIV reverse transcriptase (Human immunodeficiency virus type 1 group M subtype B, UniProt P03366)
# Construct: performed for the enzyme HIV reverse transcriptase (GE Healthcare, 30 U/4 stock solution); purchased GE Healthcare
# method_summary: Steady-state kinetic assay of Asp-dNMP incorporation by HIV RT (Example 4)
# Format: biochemical, HIV-1
# experimental_context: 37° C.; P1-T2, P1-T4 or P2T4
Measured log10(Km) by item
Quick note: numbers are log10 of Km, with µM as the unit.

{"compound": "Nc1ccn([C@H]2C[C@H](O)[C@@H](COP(=O)(O)N[C@@H](CC(=O)O)C(=O)O)O2)c(=O)n1", "log10(Km)": 2.12}

Problem: State its log10(Km): Nc1nc2c(ncn2[C@H]2C[C@H](O)[C@@H](COP(=O)(O)N[C@@H](CC(=O)O)C(=O)O)O2)c(=O)[nH]1
Result: 2.23

Problem: Let me know recorded log10(Km) for Cc1cn([C@H]2C[C@H](O)[C@@H](COP(=O)(O)OP(=O)(O)OP(=O)(O)O)O2)c(=O)[nH]c1=O [dTTP, reference compound] , thanks.
Result: -0.28

Problem: Quickly give me recorded log10(Km) for Cc1cn([C@H]2C[C@H](O)[C@@H](COP(=O)(O)N[C@@H](CC(=O)O)C(=O)O)O2)c(=O)[nH]c1=O
Result: 2.46

Problem: Item Nc1ccn([C@H]2C[C@H](O)[C@@H](COP(=O)(O)OP(=O)(O)OP(=O)(O)O)O2)c(=O)n1 [dCTP, reference compound] : provide log10(Km)
Result: 0.57

Problem: Provide log10(Km) value for the following compound: Nc1nc2c(ncn2[C@H]2C[C@H](O)[C@@H](COP(=O)(O)OP(=O)(O)OP(=O)(O)O)O2)c(=O)[nH]1 [dGTP, reference compound]
Result: -0.27
